Biological target: human recombinant renin (Homo sapiens, UniProt P00797)
Sequence (P00797 67-406): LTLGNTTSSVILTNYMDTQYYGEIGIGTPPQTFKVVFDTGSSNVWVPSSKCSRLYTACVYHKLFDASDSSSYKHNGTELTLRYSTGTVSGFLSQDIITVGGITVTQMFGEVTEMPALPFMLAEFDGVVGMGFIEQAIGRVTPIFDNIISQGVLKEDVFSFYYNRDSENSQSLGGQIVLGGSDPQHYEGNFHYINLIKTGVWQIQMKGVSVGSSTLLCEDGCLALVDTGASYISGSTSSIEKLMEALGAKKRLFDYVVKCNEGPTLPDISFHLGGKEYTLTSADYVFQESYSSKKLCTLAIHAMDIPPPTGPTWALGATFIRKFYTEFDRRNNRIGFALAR
Assay: Inhibition of human recombinant renin (enzymatic in vitro assay, Ang I EIA)
Type: biochemical
Conditions: human recombinant renin 40 pM, buffer, 37° C. 3 h
Procedure: Inhibition of Human Recombinant Renin The enzymatic in vitro assay was performed in 384-well polypropylene plates (Nunc). The assay buffer consisted of PBS (Gibco BRL) including 1 mM EDTA and 0.1% BSA. The reaction mixture were composed of 47.5 μL per well of an enzyme mix and 2.5 μL of renin inhibitors in DMSO. […] To determine the enzymatic activity and its inhibition, the accumulated Ang I was detected by an enzyme immunoassay (EIA) in 384-well plates (Nunc). […]
Measurement Label: log10 IC50 (log10 of the value in nM)

> print(dat)
                                   molecule  quantitative.readout
1  COCCCc1ccccc1-c1ccc(C(CN)Cc2cc(F)cc(F)c2)c(C)c1 (stereo not shown) [Example 32]                  2.45
2  Cc1cc(Cl)c(OCCOc2ccc(CC(CN)c3ccc(-c4ccccc4CCC(=O)N(C)C)cc3C)cc2)c(Cl)c1 (stereo not shown) [Example 24]                  1.49
3  Cc1cc(Cl)c(OCCOc2ccc(CC(CN)c3ccc(-c4ccccc4Cl)cc3C)cc2)c(Cl)c1 (stereo not shown) [Example 1]                  0.78
4  COCCCc1ccccc1-c1ccc(C(CN)Cc2ccc(OCCOc3c(Cl)cc(C)cc3Cl)cc2)c(C(F)(F)F)c1 (stereo not shown) [Example 13]                 -0.05
5  COCCCc1ccccc1-c1cc(C(F)(F)F)c(C(CN)Cc2ccc(OCCOc3c(Cl)cc(C)cc3Cl)cc2)cn1 (stereo not shown) [Example 11]                 -0.52
6  COCCCOc1ccccc1-c1ccc(C(CN)Cc2ccc(OCCOc3c(Cl)cc(C)cc3Cl)cc2)c(C)c1 (stereo not shown) [Example 5]                  0.23
7  COc1cc(-c2ccccc2Cl)ccc1C(CN)Cc1ccc(OCCOc2c(Cl)cc(C)cc2Cl)cc1 (stereo not shown) [Example 8]                  1.68
